- tested system: UniProtKB P0AE70
- Sequence (P0AE70 whole entry): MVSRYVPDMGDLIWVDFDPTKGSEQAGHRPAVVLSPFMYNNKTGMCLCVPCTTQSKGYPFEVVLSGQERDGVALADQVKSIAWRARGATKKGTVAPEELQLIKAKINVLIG
- method description: substrate-only fluorescence increase artefacts – biochemical, single-stranded RNase substrate, counter-screen for MazEF activator project, dose response (AID 588502)
- Assay type: functional
Active and inactive are the calls of the source.
API: response.call in active, inactive

                           substance_smiles     cat
0  O=C1NC(=O)N(C2CCCCC2)C(=O)/C1=C\C=C\Nc1ccccc1  active

Entry CC/C(=N/Nc1cccc(C)c1)c1cnnc(SC)n1 : call = ?
inactive

// param item: CCc1cccc(CC)c1NC(=O)COC(=O)/C(C#N)=C/c1ccc(OC)cc1 ; yields the recorded call
inactive

Hey, what did the test say about CCOC(=O)c1c(NC(=O)Nc2ccc(C)cc2)sc2c1CCN(C)C2 ?
inactive

---

- tested system: Heat shock factor protein 1 (Mus musculus, UniProt P38532)
- Sequence (P38532 whole entry): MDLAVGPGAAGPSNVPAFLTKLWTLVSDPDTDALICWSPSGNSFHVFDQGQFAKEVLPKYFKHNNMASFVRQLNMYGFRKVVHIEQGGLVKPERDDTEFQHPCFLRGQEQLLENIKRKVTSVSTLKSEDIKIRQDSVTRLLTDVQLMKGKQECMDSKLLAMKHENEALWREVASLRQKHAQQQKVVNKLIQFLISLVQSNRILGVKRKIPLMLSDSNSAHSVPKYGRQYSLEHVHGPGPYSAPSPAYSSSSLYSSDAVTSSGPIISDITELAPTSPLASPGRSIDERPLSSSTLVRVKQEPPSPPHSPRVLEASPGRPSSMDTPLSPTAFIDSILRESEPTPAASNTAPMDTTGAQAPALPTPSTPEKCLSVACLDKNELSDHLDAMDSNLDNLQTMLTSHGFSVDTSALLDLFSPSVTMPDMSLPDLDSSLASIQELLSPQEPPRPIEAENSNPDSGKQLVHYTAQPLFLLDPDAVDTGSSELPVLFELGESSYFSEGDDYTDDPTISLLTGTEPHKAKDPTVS
- method description: decrease of HSF1-responsive luciferase luminescence – cell-based, NIH3T3, dose retest, confirmation (AID 2382);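 further: NIH3T3 fibroblasts with HSF1-driven luciferase reporter stressed by proteasome inhibitor MG132; luminescence from HSF1-driven luciferase expression after 8 hours of MG132 stress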
- Type: functional
measured metric: EC50

In [3]: df
Out[3]:
                           substance_smiles                             tested_system         endpoint_value
0  Cc1ccccc1C(=O)Nc1nnc(CC(=O)N/N=C/c2ccco2)s1  Heat shock factor protein 1 (Mus musculus, UniProt P38532)  > 195 µM (not active)

In the following, a different compound is considered.
For Cc1ccnc(NS(=O)(=O)c2ccc(NC(=O)COc3ccccc3)cc2)n1 , write its EC50.
> 195 µM (not active)

---

- tested system: Replicative DNA helicase DnaB (Mycobacterium tuberculosis, UniProt P9WMR3)
- Sequence (P9WMR3 whole entry): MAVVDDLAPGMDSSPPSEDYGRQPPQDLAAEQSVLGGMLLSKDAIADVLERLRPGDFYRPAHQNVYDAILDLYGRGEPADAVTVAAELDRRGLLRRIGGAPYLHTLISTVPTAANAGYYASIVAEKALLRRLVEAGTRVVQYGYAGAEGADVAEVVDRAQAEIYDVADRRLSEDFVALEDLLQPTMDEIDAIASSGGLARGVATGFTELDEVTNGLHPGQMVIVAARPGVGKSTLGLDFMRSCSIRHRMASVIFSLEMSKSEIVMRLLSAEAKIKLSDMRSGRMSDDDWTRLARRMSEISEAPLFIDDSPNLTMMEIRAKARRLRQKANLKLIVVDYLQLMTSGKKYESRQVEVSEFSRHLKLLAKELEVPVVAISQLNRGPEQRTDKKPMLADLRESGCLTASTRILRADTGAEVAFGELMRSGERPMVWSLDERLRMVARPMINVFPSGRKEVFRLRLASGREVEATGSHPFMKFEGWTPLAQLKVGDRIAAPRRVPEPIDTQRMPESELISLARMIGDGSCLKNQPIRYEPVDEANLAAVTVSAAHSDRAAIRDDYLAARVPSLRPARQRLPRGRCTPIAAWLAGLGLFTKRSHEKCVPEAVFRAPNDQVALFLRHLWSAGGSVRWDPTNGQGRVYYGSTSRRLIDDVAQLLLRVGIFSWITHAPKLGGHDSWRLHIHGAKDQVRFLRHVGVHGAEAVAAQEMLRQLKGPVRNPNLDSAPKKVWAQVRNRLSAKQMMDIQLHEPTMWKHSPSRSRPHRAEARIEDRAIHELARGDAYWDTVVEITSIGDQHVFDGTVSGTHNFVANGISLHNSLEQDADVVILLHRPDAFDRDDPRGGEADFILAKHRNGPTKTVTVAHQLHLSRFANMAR
- method description: DnaB intein splicing inhibitors, dose response, biochemical, cell-free fluorescence (AID 449749)
- Type: functional
Active and inactive are the calls of the source.
Response enum: 1.0 = active, 0.0 = inactive

>>> print(df.to_string())
                                   molecule                             tested_system  cat
0            Cc1ccc(-n2ncc(Br)c(Br)c2=O)cc1  Replicative DNA helicase DnaB (Mycobacterium tuberculosis, UniProt P9WMR3)  1.0
1  CCCc1n[nH]c2c1C(c1ccccc1OC)C(C#N)=C(N)O2 (configuration not stated)  Replicative DNA helicase DnaB (Mycobacterium tuberculosis, UniProt P9WMR3)  1.0

Identify the outcome logged in this assay for the molecule shown: Cc1ccc(Sc2c([N+](=O)[O-])ncn2C)cc1
1.0

Answer briefly: the call reported for O=C(CCCN1C(=O)/C(=C/c2ccccc2)SC1=S)Nc1ccc(C(=O)O)c(O)c1 in this assay.
1.0

Hey, what did the test say about CC1=NNC(=O)C1C(c1ccc(Cl)cc1)C(C#N)C#N (configuration not stated) ?
1.0

Entry CCCCCCOC(=O)c1ccccc1NC(=O)/C=C/C(=O)O : call = ?
0.0

// return assay outcome for Cl.N=c1n(Cc2ccccc2)c2ccccc2n1CC(O)COc1ccc(Cl)cc1Cl (configuration not stated)
1.0
